These measurements were taken from paper PMC6270012.

Target: BACE1 (Homo sapiens, UniProt P56817)
Construct: purchased RD System, Inc. (WI, USA)
Sequence (P56817 46-501): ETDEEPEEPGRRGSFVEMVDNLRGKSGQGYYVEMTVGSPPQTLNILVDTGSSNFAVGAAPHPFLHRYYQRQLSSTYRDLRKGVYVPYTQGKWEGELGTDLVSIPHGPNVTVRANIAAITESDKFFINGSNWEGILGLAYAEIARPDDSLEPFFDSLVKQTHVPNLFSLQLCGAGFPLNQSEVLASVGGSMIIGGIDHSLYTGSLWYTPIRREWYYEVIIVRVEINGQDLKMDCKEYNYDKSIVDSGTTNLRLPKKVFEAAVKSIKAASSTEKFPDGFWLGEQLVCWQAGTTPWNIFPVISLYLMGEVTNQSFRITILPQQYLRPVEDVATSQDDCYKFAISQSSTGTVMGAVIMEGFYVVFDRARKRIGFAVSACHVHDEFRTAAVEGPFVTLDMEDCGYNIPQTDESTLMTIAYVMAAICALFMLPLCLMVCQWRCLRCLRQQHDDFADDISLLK
Test: BACE1 FRET peptide cleavage assay
Assay type: biochemical
Settings: BACE1
Procedure: In this assay, BACE1-catalyzed proteolysis of a synthetic oligopeptide substituted with a fluorescent dye and a quencher leads to an increase in fluorescence by breaking the tether between the dye and the quencher. […] The assay was carried out according to the supplied manual with small modifications. The assay was carried out according to the supplied manual with modifications. […] The mixture was irradiated at 545 nm and the emission intensity at 590 nm was recorded. […]
reportedProperty: pIC50
// field semantics: pIC50 = negative decimal log of concentration (mol/L)

[ask] Given the compound O=c1c(O)c(-c2ccc(O)cc2O)oc2cc(O)cc(O)c12 [Morin, reference compound] , what is its reported pIC50?
[reply] 4.91

* * *

biological target: BACE1 (Homo sapiens, UniProt P56817); construct: purchased RD System, Inc. (WI, USA); test: BACE1 FRET peptide cleavage assay; type: biochemical; conditions: BACE1; Dixon plot; read-out: Ki (inhibition constant)
Each entry below carries its recorded pKi.
// field semantics: pKi = negative decimal log of concentration (mol/L)

1) Nc1ccc(C(=O)/C=C/c2ccc(O)c(O)c2)cc1 [Compound 2, 4′-Amino-3,4-dihydroxychalcone] : 4.98

[ask] Given the compound O=C(/C=C/c1ccc(O)cc1)c1ccc(NS(=O)(=O)c2ccccc2)cc1 , what is its reported pKi?
[reply] 5.23

[ask] Note, next up: Nc1ccc(S(=O)(=O)Nc2ccc(C(=O)/C=C/c3ccc(O)cc3)cc2)cc1
[reply] 5.38

* * *

biological target: equine serum BChE (Equus caballus, UniProt P81908); construct: 2 μL of equine serum BChE (0.05 U/mL) solution; experiment: Cholinesterase inhibitory activity (Ellman), BChE; conditions: read-out: Ki (inhibition constant) BChE
Sequence (P81908 whole entry): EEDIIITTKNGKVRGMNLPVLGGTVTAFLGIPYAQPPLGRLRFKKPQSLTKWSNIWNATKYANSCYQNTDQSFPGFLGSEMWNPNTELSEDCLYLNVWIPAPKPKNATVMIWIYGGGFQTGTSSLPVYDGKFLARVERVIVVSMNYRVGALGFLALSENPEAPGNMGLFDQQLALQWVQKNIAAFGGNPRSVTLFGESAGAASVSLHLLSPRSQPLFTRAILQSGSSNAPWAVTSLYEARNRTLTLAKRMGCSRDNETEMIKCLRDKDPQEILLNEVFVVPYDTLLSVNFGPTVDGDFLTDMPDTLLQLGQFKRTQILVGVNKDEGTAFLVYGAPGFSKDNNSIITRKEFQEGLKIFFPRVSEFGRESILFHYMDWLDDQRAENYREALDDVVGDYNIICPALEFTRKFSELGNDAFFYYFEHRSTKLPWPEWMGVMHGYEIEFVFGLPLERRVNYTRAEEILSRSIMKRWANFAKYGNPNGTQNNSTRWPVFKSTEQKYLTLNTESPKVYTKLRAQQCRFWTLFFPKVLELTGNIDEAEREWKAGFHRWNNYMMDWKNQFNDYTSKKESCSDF
Just a reminder that ties go to FALSE: only Ki strictly below 30 µM counts as TRUE.

Worked set:
1. O=C(/C=C/c1ccc(O)c(O)c1)c1ccc(NS(=O)(=O)c2ccccc2)cc1 : FALSE
2. Cc1ccc(S(=O)(=O)Nc2ccc(C(=O)/C=C/c3ccc(O)c(O)c3)cc2)cc1 : TRUE
3. Cc1ccc(S(=O)(=O)Nc2ccc(C(=O)/C=C/c3ccc(O)cc3)cc2)cc1 : TRUE
4. O=C(/C=C/c1ccc(O)c(O)c1)c1ccc(NS(=O)(=O)c2ccc(O)cc2)cc1 : TRUE
5. O=C(/C=C/c1ccc(O)cc1)c1ccc(NS(=O)(=O)c2ccccc2)cc1 : FALSE

Let's switch to this compound now.
[ask] Does Nc1ccc(S(=O)(=O)Nc2ccc(C(=O)/C=C/c3ccc(O)cc3)cc2)cc1 have Ki strictly under 30 µM?
[reply] TRUE

* * *

target: equine serum BChE (Equus caballus, UniProt P81908); construct: 2 μL of equine serum BChE (0.05 U/mL) solution; assay: Cholinesterase inhibitory activity (Ellman), BChE
Just a reminder that ties go to class 0: only IC50 strictly below 50 µM counts as class 1.

Worked set:
1. O=C(/C=C/c1ccc(O)c(O)c1)c1ccc(NS(=O)(=O)c2ccc(O)cc2)cc1 : class 1
2. O=C(/C=C/c1ccc(O)cc1)c1ccc(NS(=O)(=O)c2ccccc2)cc1 : class 0
3. Nc1ccc(S(=O)(=O)Nc2ccc(C(=O)/C=C/c3ccc(O)cc3)cc2)cc1 : class 1
4. Cc1ccc(S(=O)(=O)Nc2ccc(C(=O)/C=C/c3ccc(O)cc3)cc2)cc1 : class 1

[ask] Does O=C(/C=C/c1ccc(O)c(O)c1)c1ccc(NS(=O)(=O)c2ccccc2)cc1 have IC50 strictly under 50 µM?
[reply] class 0

[ask] Note, next up: Cc1ccc(S(=O)(=O)Nc2ccc(C(=O)/C=C/c3ccc(O)c(O)c3)cc2)cc1
[reply] class 1

* * *

biological target: human erythrocyte AChE (Homo sapiens, UniProt P22303); construct: 2 μL of human erythrocyte AChE (0.25 U/mL); from tissue; host or cells: human erythrocytes; assay: Cholinesterase inhibitory activity (Ellman), AChE; format: biochemical; settings: read-out: Ki (inhibition constant) AChE
Sequence (P22303 other isoform, or with tags, fused parts or gaps): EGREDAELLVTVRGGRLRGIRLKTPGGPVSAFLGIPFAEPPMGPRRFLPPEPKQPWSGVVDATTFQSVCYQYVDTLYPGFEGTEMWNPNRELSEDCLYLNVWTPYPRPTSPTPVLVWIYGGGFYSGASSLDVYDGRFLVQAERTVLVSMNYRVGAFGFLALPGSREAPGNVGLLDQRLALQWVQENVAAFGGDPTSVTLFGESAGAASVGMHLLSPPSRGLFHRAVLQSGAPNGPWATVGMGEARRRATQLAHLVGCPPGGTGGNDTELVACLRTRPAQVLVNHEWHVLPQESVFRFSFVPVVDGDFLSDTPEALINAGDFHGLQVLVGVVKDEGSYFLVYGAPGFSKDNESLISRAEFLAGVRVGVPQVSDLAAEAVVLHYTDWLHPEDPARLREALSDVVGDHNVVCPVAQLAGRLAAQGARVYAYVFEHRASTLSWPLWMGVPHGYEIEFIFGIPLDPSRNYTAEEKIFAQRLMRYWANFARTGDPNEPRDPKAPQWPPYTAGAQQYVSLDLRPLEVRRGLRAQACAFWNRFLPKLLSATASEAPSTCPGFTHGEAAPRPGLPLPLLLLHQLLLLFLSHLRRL
reportedProperty: Ki (µM)
Express the result in µM but write the number alone.

1) O=C(/C=C/c1ccc(O)cc1)c1ccc(NS(=O)(=O)c2ccccc2)cc1 [Compound 4c] : 80.3

[ask] Given the molecule Cc1ccc(S(=O)(=O)Nc2ccc(C(=O)/C=C/c3ccc(O)c(O)c3)cc2)cc1 [Compound 5a] , what is its reported Ki?
[reply] 55.8

[ask] Note, next up: Nc1ccc(S(=O)(=O)Nc2ccc(C(=O)/C=C/c3ccc(O)cc3)cc2)cc1 [Compound 4f]
[reply] 61.5

* * *

// human erythrocyte AChE (Homo sapiens) IC50 records
Express the result in µM but write the number alone.

1. Cc1ccc(S(=O)(=O)Nc2ccc(C(=O)/C=C/c3ccc(O)c(O)c3)cc2)cc1 [Compound 5a] : 75.9
2. O=C(/C=C/c1ccc(O)cc1)c1ccc(NS(=O)(=O)c2ccccc2)cc1 [Compound 4c] : 83.3
3. Cc1ccc(S(=O)(=O)Nc2ccc(C(=O)/C=C/c3ccc(O)cc3)cc2)cc1 [Compound 4a] : 56.1
4. O=C(/C=C/c1ccc(O)c(O)c1)c1ccc(NS(=O)(=O)c2ccccc2)cc1 [Compound 5b] : 75.4
5. Nc1ccc(S(=O)(=O)Nc2ccc(C(=O)/C=C/c3ccc(O)cc3)cc2)cc1 [Compound 4f] : 95.8

We next turn to a different compound, shown below.
[ask] Notebook: pull reported IC50 for human erythrocyte AChE (Homo sapiens), entry O=C(/C=C/c1ccc(O)c(O)c1)c1ccc(NS(=O)(=O)c2ccc(O)cc2)cc1 [Compound 5c]
[reply] 57.4

* * *

biological target: BACE1 (Homo sapiens, UniProt P56817); construct: purchased RD System, Inc. (WI, USA); experiment: BACE1 FRET peptide cleavage assay; type: biochemical; details: BACE1; read-out: Ki
reportedProperty: pKi
// field semantics: pKi = negative decimal log of concentration (mol/L)

[ask] Given the molecule Cc1ccc(S(=O)(=O)Nc2ccc(C(=O)/C=C/c3ccc(O)c(O)c3)cc2)cc1 , what is its reported pKi?
[reply] 7.15

* * *

Each entry below carries its recorded IC50.
target: BACE1 (Homo sapiens, UniProt P56817); construct: purchased RD System, Inc. (WI, USA); experiment: BACE1 FRET peptide cleavage assay; assay type: biochemical; settings: BACE1 activity; mean of three experiments ± SD
Express the result in µM but write the number alone.

Answered examples (2):
1. Cc1ccc(S(=O)(=O)Nc2ccc(C(=O)/C=C/c3ccccc3)cc2)cc1 : 169
2. Nc1ccc(C(=O)/C=C/c2ccc(O)cc2)cc1 [Compound 1, 4′-Amino-4-hydroxychalcone] : 48.2

We next turn to a different compound, shown below.
[ask] Given the compound O=C(/C=C/c1ccc(O)cc1)c1ccc(NS(=O)(=O)c2ccc([N+](=O)[O-])cc2)cc1 , what is its reported IC50?
[reply] 107

* * *

molecular target: BACE1 (Homo sapiens); construct: purchased RD System, Inc. (WI, USA); experiment: BACE1 FRET peptide cleavage assay; type: biochemical; details: BACE1; Dixon plot; read-out: Ki (inhibition constant)
reportedProperty: pKi
// field semantics: pKi = negative decimal log of concentration (mol/L)

1) O=C(/C=C/c1ccc(O)c(O)c1)c1ccc(NS(=O)(=O)c2ccc(O)cc2)cc1 [Compound 5c] : 6.25
2) Nc1ccc(S(=O)(=O)Nc2ccc(C(=O)/C=C/c3ccc(O)c(O)c3)cc2)cc1 [Compound 5d] : 6.16
3) O=C(/C=C/c1ccc(O)c(O)c1)c1ccc(NS(=O)(=O)c2ccc(F)cc2)cc1 [Compound 5f] : 4.97
4) O=C(/C=C/c1ccc(O)c(O)c1)c1ccc(NS(=O)(=O)c2ccccc2)cc1 [Compound 5b] : 5.42
5) Nc1ccc(C(=O)/C=C/c2ccc(O)cc2)cc1 [Compound 1, 4′-Amino-4-hydroxychalcone] : 4.36
6) O=C(/C=C/c1ccc(O)cc1)c1ccc(NS(=O)(=O)c2ccc(O)cc2)cc1 [Compound 4d] : 5.83
7) COc1ccc(S(=O)(=O)Nc2ccc(C(=O)/C=C/c3ccc(O)cc3)cc2)cc1 [Compound 4e] : 4.12
8) O=C(/C=C/c1ccc(O)cc1)c1ccc(NS(=O)(=O)c2ccc([N+](=O)[O-])cc2)cc1 [Compound 4g] : 4.02

[ask] Given the compound Cc1ccc(S(=O)(=O)Nc2ccc(C(=O)/C=C/c3ccc(O)cc3)cc2)cc1 [Compound 4a] , what is its reported pKi?
[reply] 6.25

[ask] Note, next up: Cc1ccc(S(=O)(=O)Nc2ccc(C(=O)/C=C/c3ccc(O)cc3O)cc2)cc1 [Compound 6]
[reply] 5.72

[ask] Note, next up: O=C(/C=C/c1ccc(O)c(O)c1)c1ccc(NS(=O)(=O)c2ccc([N+](=O)[O-])cc2)cc1 [Compound 5e]
[reply] 4.03

* * *

// human erythrocyte AChE (Homo sapiens, UniProt P22303) Ki records
Express the result in µM but write the number alone.

Answered examples (2):
1. O=C(/C=C/c1ccc(O)c(O)c1)c1ccc(NS(=O)(=O)c2ccccc2)cc1 [Compound 5b] : 57.2
2. O=C(/C=C/c1ccc(O)c(O)c1)c1ccc(NS(=O)(=O)c2ccc(O)cc2)cc1 [Compound 5c] : 47.6

We next turn to a different molecule, shown below.
[ask] Given the molecule Cc1ccc(S(=O)(=O)Nc2ccc(C(=O)/C=C/c3ccc(O)cc3)cc2)cc1 [Compound 4a] , what is its reported Ki?
[reply] 40.4
